Values were extracted from patent US4771070A.

- procedure_text: physchem
- Type: physicochemical
- condition: dimethylacetamide
readout_label: remaining at 730 h (%)
State the answer as a number, implicitly in %.

The molecule listed as CCC(C=CC1OC(=O)C=CC1C)=CC(C)CC=CC(C)=CC(C)C(=O)C(C)C(O)C(C)CC(C)=CC(=O)O (stereo not shown) [CL-1957A] shows remaining at 730 h equal to 95

###

- procedure_text: physchem
- Type: physicochemical
- condition: 95% ethanol
readout_label: remaining at 3650 h (%)
Express the result in % but write the number alone.

Lookup result for CCC(C=CC1OC(=O)C=CC1C)=CC(C)CC=CC(C)=CC(C)C(=O)C(C)C(O)C(C)CC(C)=CC(=O)O (stereo not shown) [CL-1957A] ; measured remaining at 3650 h: 100
